biological target: dAsCas12a Ultra (Acidaminococcus sp., UniProt U2UMQ6 1-1307, M537R;F870L;D908A;E993A;D1235A); assay: Spec-seq (native PAGE EMSA with sequencing of bound and unbound); 25 mM Tris-HCl pH 7.4, 150 mM KCl, 5 mM MgCl2, 10% glycerol, 1 mM DTT, 40 ng/uL salmon sperm DNA; 400 nM Cas12a, 480 nM crRNA, 50 nM library, 37 C 1 h; native PAGE at room temperature; high values mean tight binding; details: protein: recombinant
I'd appreciate it if you could supply binding signal values for the items below.
Answers are plain numbers, in lnKA.

# count of solved cases: 4
TATT (dsDNA) DNA 1: GCTATCTAGTGCTCAGTACGCACTGTATTAGGAAACTTCTGGCAGGACCAGGTCATGAGATCGGAAGAGCACACGTCTGAACTCCAGTCA DNA 2: TGACTGGAGTTCAGACGTGTGCTCTTCCGATCTCATGACCTGGTCCTGCCAGAAGTTTCCTAATACAGTGCGTACTGAGCACTAGATAGC RNA: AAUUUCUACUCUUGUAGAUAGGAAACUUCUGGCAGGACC	-8.42
GCTG (dsDNA) DNA 1: GCTATCTAGTGCTCAGTACGCACTGGCTGAGGAAACTTCTGGCAGGACCAGGTCATGAGATCGGAAGAGCACACGTCTGAACTCCAGTCA DNA 2: TGACTGGAGTTCAGACGTGTGCTCTTCCGATCTCATGACCTGGTCCTGCCAGAAGTTTCCTCAGCCAGTGCGTACTGAGCACTAGATAGC RNA: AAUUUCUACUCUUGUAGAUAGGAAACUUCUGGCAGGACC	-7.49
CCGG (dsDNA) DNA 1: GCTATCTAGTGCTCAGTACGCACTGCCGGAGGAAACTTCTGGCAGGACCAGGTCATGAGATCGGAAGAGCACACGTCTGAACTCCAGTCA DNA 2: TGACTGGAGTTCAGACGTGTGCTCTTCCGATCTCATGACCTGGTCCTGCCAGAAGTTTCCTCCGGCAGTGCGTACTGAGCACTAGATAGC RNA: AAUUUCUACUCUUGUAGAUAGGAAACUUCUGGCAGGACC	-8.87
GATT (dsDNA) DNA 1: GCTATCTAGTGCTCAGTACGCACTGGATTAGGAAACTTCTGGCAGGACCAGGTCATGAGATCGGAAGAGCACACGTCTGAACTCCAGTCA DNA 2: TGACTGGAGTTCAGACGTGTGCTCTTCCGATCTCATGACCTGGTCCTGCCAGAAGTTTCCTAATCCAGTGCGTACTGAGCACTAGATAGC RNA: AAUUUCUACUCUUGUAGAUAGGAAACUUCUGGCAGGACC	-8.92

Continue with the binder presented below.
Query TTTG (dsDNA) DNA 1: GCTATCTAGTGCTCAGTACGCACTGTTTGAGGAAACTTCTGGCAGGACCAGGTCATGAGATCGGAAGAGCACACGTCTGAACTCCAGTCA DNA 2: TGACTGGAGTTCAGACGTGTGCTCTTCCGATCTCATGACCTGGTCCTGCCAGAAGTTTCCTCAAACAGTGCGTACTGAGCACTAGATAGC RNA: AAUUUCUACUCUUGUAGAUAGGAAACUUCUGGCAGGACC yields binding signal of -0.474
